# Target Of Assay: p70S6K (Homo sapiens, UniProt P23443, T412E)
# Construct: human p70S6 kinase domain residues 1-421, containing a T412E mutation; made in house
# Sequence (P23443 1-421 T412E): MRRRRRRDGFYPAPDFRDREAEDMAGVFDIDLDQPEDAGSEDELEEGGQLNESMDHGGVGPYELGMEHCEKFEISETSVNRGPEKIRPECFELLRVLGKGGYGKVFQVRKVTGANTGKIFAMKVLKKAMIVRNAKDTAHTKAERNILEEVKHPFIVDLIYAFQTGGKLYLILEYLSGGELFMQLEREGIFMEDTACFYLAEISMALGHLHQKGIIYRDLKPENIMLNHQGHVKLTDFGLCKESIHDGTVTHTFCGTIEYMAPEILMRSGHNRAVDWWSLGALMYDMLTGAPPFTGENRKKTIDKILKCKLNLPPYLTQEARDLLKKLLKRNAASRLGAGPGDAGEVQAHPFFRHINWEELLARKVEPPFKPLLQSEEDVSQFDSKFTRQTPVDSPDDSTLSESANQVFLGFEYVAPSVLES
# Protocol Details: p70S6 Kinase Assay (Luciferase-Coupled Chemiluminescent Kinase assay, LCCA)
# Assay type: biochemical
# Measurement Conditions: human p70S6 kinase domain residues 1-421, T412E; 5 μM ATP; read-out: p70S6K IC50
pIC50: −log10 of the molar value.
Result Type: pIC50

// worked examples, pIC50 included
CSc1nc(N)nc(N[C@@H](CCCNC(=N)N)C(=O)Nc2cccc(C(F)(F)F)c2)c1C#N < 5.70
CSc1nc(N)nc(N(CC(=O)Nc2cccc(C(F)(F)F)c2)CC2CCOCC2)c1C#N < 5.70
CSc1nc(N)nc(N[C@@H](CCCCN)C(=O)Nc2cccc(C(F)(F)F)c2)c1C#N < 5.70

Query: For CSc1nc(N)nc(NC(C)(C)C(=O)Nc2cccc(C(F)(F)F)c2)c1C#N , what is its reported pIC50?
Response: < 5.70

Query: For COc1nc(N)nc(N(C)[C@@H](C)C(=O)Nc2cccc(OC(F)(F)F)c2)c1C#N , what is its reported pIC50?
Response: < 5.70

Query: For CSc1nc(N)nc(N[C@@H](C)C(=O)Nc2cc(N)cc(C(F)(F)F)c2)c1C#N , what is its reported pIC50?
Response: < 5.70

Query: For CCOc1nc(N)nc(N[C@@H](CCCN2CCOCC2)C(=O)Nc2cccc(C(F)(F)F)c2)c1C#N , what is its reported pIC50?
Response: < 5.70

Query: For C[C@H](Nc1nc(N)nc(S(C)(=O)=O)c1C#N)C(=O)Nc1cccc(C(F)(F)F)c1 , what is its reported pIC50?
Response: < 5.70

Query: For CCOc1nc(N)nc(N[C@@H](CCCCN(C)C)C(=O)Nc2cccc(C(F)(F)F)c2)c1C#N , what is its reported pIC50?
Response: < 5.70

Query: For COc1nc(N)nc(N[C@@H](C)C(=O)Nc2cc(OCCN(C)C)cc(C(F)(F)F)c2)c1C#N , what is its reported pIC50?
Response: < 5.70

Query: For CSc1nc(N)nc(SCC(=O)c2ccc3c(c2)NC(=O)CO3)c1C#N , what is its reported pIC50?
Response: 6.30 to 7.30

Query: For CCOc1nc(N)nc(N[C@@H](CO)C(=O)Nc2cccc(C(F)(F)F)c2)c1C#N , what is its reported pIC50?
Response: 5.70 to 6.30

Query: For CSc1nc(COC(=O)Nc2cccc(C(F)(F)F)c2)cc(NCc2ccccc2)n1 , what is its reported pIC50?
Response: > 7.30

Query: For CSc1cc(OCC(=O)Nc2cccc(C(F)(F)F)c2)nc(N)n1 , what is its reported pIC50?
Response: > 7.30

Query: For CCOC(=O)CN(NC(=O)Nc1cccc(C(F)(F)F)c1)c1nc(N)nc(SC)c1C#N , what is its reported pIC50?
Response: < 5.70

====

# Target Of Assay: p70S6K (Homo sapiens, UniProt P23443, T412E)
# Construct: human p70S6 kinase domain residues 1-421, containing a T412E mutation; made in house
# Protocol Details: p70S6 Kinase Assay (Luciferase-Coupled Chemiluminescent Kinase assay, LCCA)
# Format: biochemical
# Measurement Conditions: human p70S6 kinase domain residues 1-421, T412E; 5 μM ATP; read-out: p70S6K IC50
pIC50: −log10 of the molar value.
Result Type: pIC50

CSc1nc(N)nc(SCC(=O)Nc2ccccn2)c1C#N > 7.30
CCOc1nc(N)nc(N[C@@H](CCCNC(=N)N)C(=O)Nc2cccc(C(F)(F)F)c2)c1C#N < 5.70
COC(=O)CC[C@H](Nc1nc(N)nc(SC)c1C#N)C(=O)Nc1cccc(C(F)(F)F)c1 5.70 to 6.30

Attention now shifts to the item below.
Query: Provide value of pIC50 for this record tested with p70S6K (Homo sapiens, UniProt P23443, T412E): CSc1nc(NC(C)=O)nc(SCC(=O)Nc2cccc(C(F)(F)F)c2)c1C#N
Response: 6.30 to 7.30

====

# Target Of Assay: p70S6K (Homo sapiens, UniProt P23443, T412E)
# Construct: human p70S6 kinase domain residues 1-421, containing a T412E mutation; made in house
# Protocol Details: p70S6 Kinase Assay (Luciferase-Coupled Chemiluminescent Kinase assay, LCCA)
# Format: biochemical
# Measurement Conditions: human p70S6 kinase domain residues 1-421, T412E; 5 μM ATP; read-out: p70S6K IC50
Result Type: IC50

Molecule	Target Of Assay	IC50
CCOc1nc(N)nc(N[C@@H](CCCN)C(=O)Nc2cccc(C(F)(F)F)c2)c1C#N [Example 148]	p70S6K (Homo sapiens, UniProt P23443, T412E)	0.5 to 2 µM
CSc1nc(N)nc(SCC(=O)n2nc(C)cc2C)c1C#N	p70S6K (Homo sapiens, UniProt P23443, T412E)	< 0.05 µM
CCOc1nc(N)nc(N[C@@H](CN(C)C)C(=O)Nc2cccc(C(F)(F)F)c2)c1C#N	p70S6K (Homo sapiens, UniProt P23443, T412E)	> 2 µM
CCOc1nc(N)nc(N[C@H](CCCCN)C(=O)Nc2cccc(C(F)(F)F)c2)c1C#N	p70S6K (Homo sapiens, UniProt P23443, T412E)	> 2 µM
C[C@H](Nc1nc(N)nc(O)c1C#N)C(=O)Nc1cccc(C(F)(F)F)c1	p70S6K (Homo sapiens, UniProt P23443, T412E)	> 2 µM

Query: For Nc1nc(SCC(=O)Nc2cccc(C(F)(F)F)c2)c(CO)c(Sc2ccccc2)n1 , what is its reported IC50?
Response: 0.05 to 0.5 µM

Query: For Nc1cc(SCC(=O)Nc2ccc(F)c(C(F)(F)F)c2)nc(N)n1 , what is its reported IC50?
Response: < 0.05 µM

Query: For CCN(CC)CCOc1cccc(NC(=O)[C@H](C)Nc2nc(N)nc(SC)c2C#N)c1 , what is its reported IC50?
Response: > 2 µM

====

# Target Of Assay: p70S6K (Homo sapiens, UniProt P23443, T412E)
# Construct: human p70S6 kinase domain residues 1-421, containing a T412E mutation; made in house
# Protocol Details: p70S6 Kinase Assay (Luciferase-Coupled Chemiluminescent Kinase assay, LCCA)
# Assay type: biochemical
# Measurement Conditions: human p70S6 kinase domain residues 1-421, T412E; 5 μM ATP; read-out: p70S6K IC50
pIC50: −log10 of the molar value.
Measured pIC50, listed per entry.

// worked examples, pIC50 included
Molecule	Target Of Assay	Result Type	Data Value
CSc1nc(N)nc(N(C)[C@@H](C)C(=O)Nc2cc(C(=O)NCCN(C)C)cc(C(F)(F)F)c2)c1C#N [Example 130]	p70S6K (Homo sapiens, UniProt P23443, T412E)	pIC50	> 7.30
COCCOC(=O)NCCC[C@H](Nc1nc(N)nc(SC)c1C#N)C(=O)Nc1cccc(C(F)(F)F)c1 [Example 126]	p70S6K (Homo sapiens, UniProt P23443, T412E)	pIC50	< 5.70

Query: For CSc1nc(N)nc(N[C@@H](C)C(=O)Nc2cc(C(=O)NO)cc(C(F)(F)F)c2)c1C#N [Example 141] , what is its reported pIC50?
Response: 6.30 to 7.30

Query: For CSc1nc(N)nc(OCC(=O)Nc2cccc(C(F)(F)F)c2)c1C=O [Example 46] , what is its reported pIC50?
Response: 6.30 to 7.30

Query: For COCCNc1nc(N[C@@H](C)C(=O)Nc2cccc(C(F)(F)F)c2)c(C#N)c(SC)n1 [Example 116] , what is its reported pIC50?
Response: < 5.70

Query: For CSc1nc(N)nc(N[C@@H](CCCN/C(N)=N/[N+](=O)[O-])C(=O)Nc2cccc(C(F)(F)F)c2)c1C#N [Example 111] , what is its reported pIC50?
Response: < 5.70

Query: For N#Cc1cnc(N2CCOCC2)nc1NCC(=O)Nc1cccc(C(F)(F)F)c1 [Example 76] , what is its reported pIC50?
Response: < 5.70

Query: For CSc1nc(N)nc(N(C)[C@@H](C)C(=O)Nc2cccc(C(F)(F)F)c2)c1C#N [Example 91] , what is its reported pIC50?
Response: < 5.70

====

# Target Of Assay: p70S6K (Homo sapiens, UniProt P23443, T412E)
# Construct: human p70S6 kinase domain residues 1-421, containing a T412E mutation; made in house
# Protocol Details: p70S6 Kinase Assay (Luciferase-Coupled Chemiluminescent Kinase assay, LCCA)
# Format: biochemical
# Measurement Conditions: human p70S6 kinase domain residues 1-421, T412E; 5 μM ATP; read-out: p70S6K IC50
Measured IC50, listed per entry.

CCCOc1nc(N)nc(N(C)[C@@H](C)C(=O)Nc2cccc(C(F)(F)F)c2)c1C#N > 2000 nM
COc1nc(N)nc(NNC(=O)Nc2cccc(C(F)(F)F)c2)c1C#N 50 to 500 nM
CNc1nc(NCC(=O)Nc2cccc(C(F)(F)F)c2)c(C#N)c(SC)n1 500 to 2000 nM
CSc1nc(N)nc(N[C@@H](COCc2ccccc2)C(=O)Nc2cccc(C(F)(F)F)c2)c1C#N > 2000 nM
CSc1nc(N)nc(SCC(=O)N(C)c2cccc(C(F)(F)F)c2)c1C#N 50 to 500 nM
CSc1nc(N)nc(N(C)[C@@H](C)c2nc3ccc(C(F)(F)F)cc3[nH]2)c1C#N > 2000 nM
CSc1nc(N)nc(NCCC[C@H](N)C(=O)Nc2cccc(C(F)(F)F)c2)c1C#N > 2000 nM
Nc1nc(Cl)c(C=O)c(OCC(=O)Nc2cccc(C(F)(F)F)c2)n1 50 to 500 nM

Query: For CSc1nc(N)nc(N[C@@H](C)C(=O)Nc2cccc(C(=O)N3CCN(C)CC3)c2)c1C#N , what is its reported IC50?
Response: > 2000 nM

Query: For CSc1nc(N)nc(N(CCC2CCOCC2)CC(=O)Nc2cccc(C(F)(F)F)c2)c1C#N , what is its reported IC50?
Response: > 2000 nM

Query: For Cc1nc2oc(C(=O)Nc3cccc(C(F)(F)F)c3)c(N)c2c(C)c1[N+](=O)[O-] , what is its reported IC50?
Response: > 2000 nM

Query: For COc1nc(N)nc(N[C@@H](C)C(=O)Nc2cc(C(=O)NCCN(C)C)cc(C(F)(F)F)c2)c1C#N , what is its reported IC50?
Response: > 2000 nM

Query: For CSc1nc(N)nc(NNC(=O)Nc2cccc(C(F)(F)F)c2)c1C#N , what is its reported IC50?
Response: 500 to 2000 nM

Query: For COC(=O)c1cc(NC(=O)[C@H](C)Nc2nc(N)nc(SC)c2C#N)cc(C(F)(F)F)c1 , what is its reported IC50?
Response: > 2000 nM

Query: For CCOc1nc(N)nc(N(C)[C@@H](CCCCNC(=O)OCc2ccccc2)C(=O)Nc2cccc(C(F)(F)F)c2)c1C#N , what is its reported IC50?
Response: > 2000 nM

Query: For COc1nc(N)nc(N[C@@H](CN(C)C)C(=O)Nc2cccc(C(F)(F)F)c2)c1C#N , what is its reported IC50?
Response: > 2000 nM

Query: For CSc1nc(N)nc(SCC(=O)Nc2cc(C(F)(F)F)ccc2N)c1C#N , what is its reported IC50?
Response: 500 to 2000 nM

Values compiled from patent US7816353B2.
